- Tested on: Crude diglycosidase
- assay-info: Examination of pH in the conversion into isoflavone aglycons by diglycosidase using soybean materials
- Assay type: biochemical, Penicillium multicolor IAM7153
- conditions: pH2.7; heat treatment of enzyme: no; reaction time 3 h
Quick reference for Decomposition efficiency of daidzin family in concentrated soybean protein among some compounds
Write down the numeric answer in % and omit the unit.

{"columns": ["smiles", "number"],
 "data": [
  ["CC(=O)OC[C@H]1O[C@@H](Oc2ccc3c(=O)c(-c4ccc(O)cc4)coc3c2)[C@H](O)[C@@H](O)[C@@H]1O", 46.0],
  ["O=c1c(-c2ccc(O)cc2)coc2cc(O)ccc12", 41.6]
]}

Continue with the compound presented below.
Input line: May I ask what Decomposition efficiency of daidzin family in concentrated soybean protein has been recorded for O=c1c(-c2ccc(O)cc2)coc2cc(O[C@@H]3O[C@H](CO)[C@@H](O)[C@H](O)[C@H]3O)ccc12 ?
Output line: 12.5

---

- System: Crude diglycosidase
- assay-info: Examination of pH in the conversion into isoflavone aglycons by diglycosidase using soybean materials
- Type: biochemical, Penicillium multicolor IAM7153
- conditions: pH5.4; heat treatment of enzyme: no; reaction time 1 h
quantity-measured: Decomposition efficiency of glycitin family in defatted soybean (%)
Write down the numeric answer in % and omit the unit.

{"columns": ["smiles", "system-under-test", "units-symbol", "number"],
 "data": [
  ["COc1cc2c(=O)c(-c3ccc(O)cc3)coc2cc1O[C@@H]1O[C@H](COC(=O)CC(=O)O)[C@@H](O)[C@H](O)[C@H]1O", "Crude diglycosidase", "%", 45.1]
]}

Input line: May I ask what Decomposition efficiency of glycitin family in defatted soybean has been recorded for COc1cc2c(=O)c(-c3ccc(O)cc3)coc2cc1O ?
Output line: 54.9

---

- System: Crude diglycosidase
- assay-info: Examination of temperature in the conversion into isoflavone aglycons by diglycosidase using soybean materials
- Format: biochemical, Penicillium multicolor IAM7153
- Design: concentration or dose not given beside the values
- conditions: 55 °C; heat treatment of enzyme: no; 1 h
Quick reference for Decomposition efficiency of glycitin family in roasted soy flour among some compounds
Write down the numeric answer in % and omit the unit.

{"columns": ["smiles", "number"],
 "data": [
  ["COc1cc2c(=O)c(-c3ccc(O)cc3)coc2cc1O", 69.9]
]}

Continue with the compound presented below.
Input line: May I ask what Decomposition efficiency of glycitin family in roasted soy flour has been recorded for COc1cc2c(=O)c(-c3ccc(O)cc3)coc2cc1O[C@@H]1O[C@H](COC(C)=O)[C@@H](O)[C@H](O)[C@H]1O ?
Output line: 30.1

---

- Test system: Crude diglycosidase
- assay-info: Examination of substrate concentration in the conversion into isoflavone aglycons by diglycosidase using soybean materials;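 further: percent of the isoflavone family total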
- Format: biochemical, Penicillium multicolor IAM7153
- conditions: concentrated soybean protein, substrate concentration 30%, heat treatment of enzyme no, reaction time 0 h
# if measured Decomposition efficiency: ratio of each glycoside/aglycon within its isoflavone family < 30%: MET  # else: NOT MET

{"columns": ["molecule", "system-under-test", "answer-label"],
 "data": [
  ["COc1cc2c(=O)c(-c3ccc(O)cc3)coc2cc1O[C@@H]1O[C@H](CO)[C@@H](O)[C@H](O)[C@H]1O [glycitin]", "Crude diglycosidase", "NOT MET"]
]}

Input line: For O=c1c(-c2ccc(O)cc2)coc2cc(O[C@@H]3O[C@H](CO)[C@@H](O)[C@H](O)[C@H]3O)cc(O)c12 [genistin] , is the recorded Decomposition efficiency: ratio of each glycoside/aglycon within its isoflavone family below the cut-off of 30%?
Output line: NOT MET

Input line: For COc1cc2c(=O)c(-c3ccc(O)cc3)coc2cc1O[C@@H]1O[C@H](COC(C)=O)[C@@H](O)[C@H](O)[C@H]1O [acetylglycitin, 6″-O-acetylglycitin] , is the recorded Decomposition efficiency: ratio of each glycoside/aglycon within its isoflavone family below the cut-off of 30%?
Output line: NOT MET

Input line: For COc1cc2c(=O)c(-c3ccc(O)cc3)coc2cc1O [glycitein] , is the recorded Decomposition efficiency: ratio of each glycoside/aglycon within its isoflavone family below the cut-off of 30%?
Output line: MET

Input line: For CC(=O)OC[C@H]1O[C@@H](Oc2ccc3c(=O)c(-c4ccc(O)cc4)coc3c2)[C@H](O)[C@@H](O)[C@@H]1O [acetly-daidzin] , is the recorded Decomposition efficiency: ratio of each glycoside/aglycon within its isoflavone family below the cut-off of 30%?
Output line: NOT MET

Input line: For COc1cc2c(=O)c(-c3ccc(O)cc3)coc2cc1O[C@@H]1O[C@H](COC(=O)CC(=O)O)[C@@H](O)[C@H](O)[C@H]1O [malonylglycitin, 6″-O-malonylglycitin] , is the recorded Decomposition efficiency: ratio of each glycoside/aglycon within its isoflavone family below the cut-off of 30%?
Output line: MET
